B1: TPR t1 (parent)
chain: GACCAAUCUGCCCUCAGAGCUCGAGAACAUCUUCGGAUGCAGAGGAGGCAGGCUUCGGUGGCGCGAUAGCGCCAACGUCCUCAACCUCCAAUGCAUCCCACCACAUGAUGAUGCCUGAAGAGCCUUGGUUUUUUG

variants of: B1; experiment: polymerase ribozyme fitness, log enrichment relative to wild type (log ratio); higher = more active; in vitro selection for triplet polymerase activity
I'd be grateful if you could share measured polymerase ribozyme fitness (log ratio) for these entries.

Check out these entries, answers already filled in.
GACCAAUCUGCCCUCAGACCUCGAGAACAUCUUCGGAUGCAGAGGAGUCAGGCUUCGGUGGCGCGAUAGCGCCAACGUCCUCAACCUCCAAUGCAUCCCACCACAUGAUGAUGCCUGAAGAGCCUUGGUUUUUUG [G19C G48U] | -2.5
GACCCAUCUGCCCUCAGAGCUCGAGAACAUCUUCUGAUGCAGAGGAGGCAGGCUUUGGUGGCACGAUAGUGCCAACGUCCUCAACCUCCAAUGCAUCCCACCACAUGAAGAUGCCUCAAGAGCCGUGGUAUUUUG [A5C G35U C56U G63A C70U U109A G117C U125G U130A] | -6.63
GACCAAUCUGCCCUCAGAGCUCGAGAAUAUCUUCGGAUGCAGAGGAGGCAGGCUUCGGUGGCGUGAUAGCGCCAACGUCCUCAACCACCAAUGCAUCCCACCACAUGAUGAUGCCUGAAGAGCCUUGGUUUUUUG [C28U C64U U87A] | -1.96
GACCAAUCUGCCCUCAGAGCUCGAGAACAUCUUCGGAUGCAGAGGAGGCAGGCUUCGGUGGCGCGAUAGCGCCAACGCCCUCAGCCUCCAAUGCAUCCCACCACAUGAUGAUGCCUGAAGAGCCUUGAUUUUUUG [U78C A84G G128A] | -3.53
GACCAUUCUGCCCUCAGAGCUCGAGAACAUCUUCGGAUGCAGAGGAGGCAGGCUUCGGUGGCGCGAUAGCGCCAACGUCCUCACCGUCCAAUUCAUCCCACCACAUGAUGAUGCCUGAAGAGCCUUGGUUUUUUG [A6U A84C C86G G93U] | -2.38
GACCAAUGUGCGCUCAGAGCUCGAGAACAUCUUCGGAUGCAGACGAGGCAGGCUUCGGUGGCGCGAUAGCGCCAACGUCCUCAACCUCCAAUGCAACCCACCACAUGAUGAUGCCUGAAGAGCCUUGGUUUUUUG [C8G C12G G44C U96A] | -0.546

Items follow; give polymerase ribozyme fitness (log ratio) for each.
1. GACCAAUCUGCCCUCAGAGCUCGAGAACAUCUUCGGAUGCAGAGGAGGCAGGCUUCGGUGGCGCGAUAGCGCCAACGUCCUCAACCUCCAAUGCAUCCCACCACAUGAUGAUACCUGAAGAGCCUGGGUUUUUUG [G113A U126G]
2. GACCAAUCUGCCGUCAGAGCUCGAGAACAUCUUCGGAUGCAGAGGAGCCAGGCUUCGGUGGCGCGAUAGCGCCAACGUCCUCAACCUCCAAUGCAUCCCACCACACGAUGAGGCCUGAAGAACCUUGGUUUUUUA [C13G G48C U106C U112G G122A G135A]
3. GACCAAUCUGCCCUCAGAGCUCGAGAACAUCUUCGGAUGCAGAGGAGGCAGGGUUGGGUGGCGCGAUAGCGCCAACGUCCUCAACCUCCAAUGCAUCCCACCACAUGAUGAUGCCUGAAGAGCCUUGGUUUUUUG [C53G C56G]

Result:
1: -3.39; 2: -2.17; 3: -0.593

Items follow; give polymerase ribozyme fitness (log ratio) for each.
1. GACCAAUCUGCCCUCAGAGCUCGAGAACAUCUUCGGAUGCAGAGGAGGCCGGCUUCGGUGGCGCGAUAGCGCCAACGUCCUCAACCUCCAAUGCAUCCCACCACAUGAUGAUGCCUUAAGAGCCUUGGUUUUUUG [A50C G117U]
2. GACCAAUCUGCCCUCAGAGCUCGAGAACAUCUUCGGAUGCAGAGGAGGAAGGCUUCGGUGGCGCGAUAGCGCCAACGUCCUCAACCUACAAUGCAUCCCACCACAUGAUGAUUCCUGAUGAGCCUUGUUUUUUUG [C49A C88A G113U A119U G128U]
3. GACCAAUCUGCCCUCAGGGCUCGAGAACAUCUUCGGAUGCAGAGGAGGCAGGCUUCGGUGGCGCGAUAGCGCCAACGUCCUCAACCUCCAAUGCAUCCCACCACAUGAUGAUGCCUGAAGAGCAUUGGUUUUUUG [A18G C124A]
4. GACCAAUCUGCACUCAGAGCUCGAGAACAUCUUCGGAUGCAGAGGAGGCAGGCUUCGGUGGCGCGAUAGCGCCAACGUACUCAACCUCCAAUGCAUCCCACCACAUGAUGGUGCCUGAAGAGCCUUGGUUUUUUG [C12A C79A A111G]

Result:
1. -2.95
2. -6.41
3. -0.403
4. -2.24

Items follow; give polymerase ribozyme fitness (log ratio) for each.
1. GACCAAUCUGCCCUCAGAGCUCGAGAACAUCUUCGGAUGCAGAGGAGGCAGGCUUGGGUGGCGCGAUAGCGCCUACGUCCUCAACCUCCAAUGCAUCCCACCACAUGAUGAUGCCUGAAUAGCCUUAGUUUUUUG [C56G A74U G120U G127A]
2. GGCCAAUCUGCCCUCAGAGCUCGAGAAUAUCUUCGGAUGCAGAGGAGGCAGGCUUCGGUGGCGCGAUAGCGCCAACGUCCUCAACCUCCAAUCCAUCCCACCACAUGAUGAUGCCUGAAGAGCGUUGGUUUUGUG [A2G C28U G93C C124G U133G]
3. GACCAAUCUGUCCUCAGAGCUCGAGAACAUCUUCGGAUGCACAGGAGGCAGGCUUCGGUGGCGCGAUAGCGCCAACGUCCUCAACCUCCAAUGCAUCCCACCACAUGAUGAUGCCUGAAGAGCCUUGGUUUUUUG [C11U G42C]
4. GACCAAUCUGCCAUCAGAGCUCGAGAACAUCUUCGGAUGCAGAGGAGGCAGGCUUCGGUGACGCGAUAGCGCCAACGUCCUCAACCUCAAAUGCAUCCCACCACAUGAUGAUGCCUGAAGAGCCUUGGUUUUUUG [C13A G61A C89A]
5. GACCAAUCUGCCCUCAGAGCUCGAGAACAUCUUCGGAUGCAGAGGAGGCAGGCUUCGGUGGCGCGAUAGGGCCAACGUACUCAACCUCCAAUGCAUCCCACCACAUGAUGAUGCCUGAAGAGCCUUGGUUUUUUG [C70G C79A]
6. GACCAAUCUGCCCUCAGAGCUCGAGAACAUCUUCGGAUGCGGAGGAGGCAGGUUUCGGUGGCGCGAUAGCGCCAACAUCCUCAACCUCCAAUGCAUCCCACCACAUGGUGAUGCCUGAAGAGCCUUGGUUUUUUG [A41G C53U G77A A108G]
7. GACCAAUCUGCCCUCAGAGCUCGAGAACAUCUUCGGAUGCAGUGGAGGCAGGCUUCGGUGGCGCGAUAGCGCCAACAUCCUCAACCUCCAAUGCAUCCCACCACAUGAUGAUGCCUGAAAAGCCUUGGUUUUUGG [A43U G77A G120A U134G]
8. GACCAAUCUGCCCUCAGAGCUCGAGAACAUCUUCGGAUGCAGAGGAGGCAGGCUUCGGAGGCGCGAUAGCGCCAACGUCCUCAACCUCCGAUGCAUCCCACCACAUGAUGAUGCCUGAAGAGUCUUGGUUUUUUG [U59A A90G C123U]

Result:
1. -1.98
2. -2.71
3. -2.01
4. -3.18
5. -4.41
6. -2.63
7. -0.215
8. 1.4

Request: Query (variant): GACCAAUCUGCCCUCAGAGCACGAGAACAUCUUCGGAUGCAGAGGAGGCAGGCUUCGGUGGUGCGAUAGCGCCAACGUCCUCAACCUCCAAUGCAUCCCACCACAUGAUGAUGCCUGAAGAGCCUUGGUUUUUUG [U21A C62U] ; field requested: polymerase ribozyme fitness (log ratio)
Result: -0.421
